// reported MIC per item
# Test system: Staphylococcus aureus ATCC29213
# experiment: MIC by broth microdilution, S. aureus ATCC 29213
# Assay type: cell-based
# protocol conditions: quality control strain, CAMHB, 35±2° C., 20 hours, drug concentration range 128 mg/L to 0.06 mg/L, read-out: inhibitory MIC value, Staphylococcus aureus ATCC29213
Field format: number, assumed µg/mL, no unit text.

Some compounds with known MIC results, for comparison:
>>> reported_value("Cc1cc(C#N)c(O)c2ncccc12 [Compound A, reference compound]")
4
>>> reported_value("N#Cc1cc(Cl)c2cccnc2c1O [Compound 9, 5-chloro-7-cyano-8-hydroxyquinoline]")
8
>>> reported_value("N#Cc1ccc2ccc(F)nc2c1O [Compound 4, 2-fluoro-7-cyano-8-hydroxyquinoline]")
16
>>> reported_value("N#Cc1c(Cl)c(Cl)c2cccnc2c1O [Compound 7, 5,6-dichloro-7-cyano-8-hydroxyquinoline]")
1
>>> reported_value("N#Cc1cc(C(F)(F)F)c2cccnc2c1O")
8

Item Cc1ccnc2c(O)c(C#N)ccc12 [Compound 3, 4-methyl-7-cyano-8-hydroxyquinoline] has what recorded MIC?
8

Do the same for Cc1ccnc2c(O)c(C#N)cc(Cl)c12 please
4

Same read-out for Cc1ccnc2c(O)c(C#N)cc(Br)c12 ?
4

Query N#Cc1cc(Br)c2cccnc2c1O [Compound 1, 5-bromo-7-cyano-8-hydroxyquinoline] next
4

----------
# Test system: methicillin-resistant Staphylococcus aureus 19-W03-012
# experiment: MIC by broth microdilution, methicillin-resistant S. aureus 19-W03-012
# Format: cell-based
# protocol conditions: methicillin-resistant clinical isolate, CAMHB, 35±2° C., 20 hours, drug concentration range 128 mg/L to 0.06 mg/L, read-out: inhibitory MIC value, Staphylococcus aureus 19-W03-012
Labelling field: enter true if recorded MIC is less than 4 µg/mL. Enter false if it equals or exceeds that cut-off.

// known answers, use as guide
>>> class("Cc1ccnc2c(O)c(C#N)cc(Cl)c12")
"true"
>>> class("N#Cc1cc(C(=O)O)c2cccnc2c1O")
"false"
>>> class("N#Cc1c(Cl)c(Cl)c2cccnc2c1O [Compound 7, 5,6-dichloro-7-cyano-8-hydroxyquinoline]")
"true"
>>> class("N#Cc1cc(Cl)c2cccnc2c1O [Compound 9, 5-chloro-7-cyano-8-hydroxyquinoline]")
"false"
>>> class("Cc1ccnc2c(O)c(C#N)cc(Br)c12")
"true"
>>> class("Cc1ccnc2c(O)c(C#N)ccc12 [Compound 3, 4-methyl-7-cyano-8-hydroxyquinoline]")
"false"

Consider the record given below.
Is it true that MIC reported for N#Cc1ccc2ccc(F)nc2c1O [Compound 4, 2-fluoro-7-cyano-8-hydroxyquinoline] is less than 4 µg/mL?
false

----------
# Test system: methicillin-resistant Staphylococcus aureus 19-W03-012
# experiment: MIC by broth microdilution, methicillin-resistant S. aureus 19-W03-012
# Format: cell-based
# protocol conditions: methicillin-resistant clinical isolate, CAMHB, 35±2° C., 20 hours, drug concentration range 128 mg/L to 0.06 mg/L, read-out: inhibitory MIC value, Staphylococcus aureus 19-W03-012
quantity: MIC (µg/mL)
Field: numeric (µg/mL). Do not append units.

Example entries and their recorded answers appear below.
>>> reported_value("N#Cc1cc(C(F)(F)F)c2cccnc2c1O [Compound 2]")
4
>>> reported_value("Cc1cc(C#N)c(O)c2ncccc12 [Compound A, reference compound]")
4

Here's the next entry for you.
Would you mind telling me what MIC value was observed for N#Cc1cc(Br)c2cccnc2c1O [Compound 1, 5-bromo-7-cyano-8-hydroxyquinoline] ?
4
